# system_name: T1, recombinant human IL-6R sR (R&D systems) (human, UniProt P08887 20-358)
# T1 construct: Bought soluble receptor; also called rhIL-6sR; rhIL-s6R
# T1 sequence (looked up): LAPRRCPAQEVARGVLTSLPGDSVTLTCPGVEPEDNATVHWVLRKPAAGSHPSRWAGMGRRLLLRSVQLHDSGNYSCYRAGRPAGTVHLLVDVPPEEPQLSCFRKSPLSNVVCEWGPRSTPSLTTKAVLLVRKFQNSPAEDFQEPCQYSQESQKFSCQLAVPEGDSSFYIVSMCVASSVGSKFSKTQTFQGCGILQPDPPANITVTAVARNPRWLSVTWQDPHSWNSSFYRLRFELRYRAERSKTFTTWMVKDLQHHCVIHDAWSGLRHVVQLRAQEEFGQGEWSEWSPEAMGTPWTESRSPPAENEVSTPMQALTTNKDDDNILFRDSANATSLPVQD
# assay_notes: SPR (Biacore T100), antibody captured on Protein A, rhIL-6sR as analyte, 25 C
# Protocol: The antigen-antibody interaction was measured by immobilizing 4,400 to 5,000 RU of rec-Protein A (Zymed) immobilized onto a sensor chip by the amine coupling method, binding various antibodies onto the chip, and then flowing the antigen over the chip as an analyte. […] The kinetic parameters, association rate constant kₐ (1/Ms) and dissociation rate constant kd (1/s) were calculated from the sensorgrams obtained by measurement. Then, KD (M) was determined based on the rate constants. […]
measure: koff (s⁻¹)
Only the number, expressed in s⁻¹, is required.

Before answering, review these 2 worked examples.
{"columns": ["binder", "koff / s⁻¹"],
 "data": [
  ["RDC-5 (antibody, V domains shown, also called RDC-5H/L(WT)) VH: QVQLQESGPGLVRPSQTLSLTCTVSGYSITSDHAWSWVRQPPGRGLEWIGYISYSGITTYNPSLKSRVTMLRDTSKNQFSLRLSSVTAADTAVYYCARVLARITAMDYWGQGSLVTVSS VL: DIQMTQSPSSLSASVGDRVTITCRASQDISSYLNWYQQKPGKAPKLLIYYTSRLHSGVPSRFSGSGSGTDFTFTISSLQPEDIATYYCQQGNTLPYTFGQGTKVEIK", "2.8e-05"],
  ["RDC-23 (antibody, V domains shown, also called RDC-5H/RDC-11L) VH: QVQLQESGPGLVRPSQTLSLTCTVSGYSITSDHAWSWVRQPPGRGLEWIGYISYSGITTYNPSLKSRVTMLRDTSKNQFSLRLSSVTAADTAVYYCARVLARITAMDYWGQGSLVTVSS VL: DIQMTQSPSSLSASVGDRVTITCRASQDISSYLNWYQQKPGKAPKLLIYYTSRLHSGVPSRFSGSGSGTDFTFTISSLQPEDIATYYCGQGNRLPYTFGQGTKVEIK", "3.1e-05"]
]}

--- query ---
Requested read-out: koff. Entry: RD-28 (antibody, V domains shown) VH: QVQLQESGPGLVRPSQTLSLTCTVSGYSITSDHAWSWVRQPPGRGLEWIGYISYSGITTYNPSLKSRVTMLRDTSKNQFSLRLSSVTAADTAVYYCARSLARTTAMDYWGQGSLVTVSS VL: DIQMTQSPSSLSASVGDRVTITCRASQDISSYLNWYQQKPGKAPKLLIYYTSRLHSGVPSRFSGSGSGTDFTFTISSLQPEDIATYYCGQGNTLPYTFGQGTKVEIK
0.00011
